Entry source: patent US20240368109A1

# assayed target: UniProt P36544
# Sequence (P36544 23-502): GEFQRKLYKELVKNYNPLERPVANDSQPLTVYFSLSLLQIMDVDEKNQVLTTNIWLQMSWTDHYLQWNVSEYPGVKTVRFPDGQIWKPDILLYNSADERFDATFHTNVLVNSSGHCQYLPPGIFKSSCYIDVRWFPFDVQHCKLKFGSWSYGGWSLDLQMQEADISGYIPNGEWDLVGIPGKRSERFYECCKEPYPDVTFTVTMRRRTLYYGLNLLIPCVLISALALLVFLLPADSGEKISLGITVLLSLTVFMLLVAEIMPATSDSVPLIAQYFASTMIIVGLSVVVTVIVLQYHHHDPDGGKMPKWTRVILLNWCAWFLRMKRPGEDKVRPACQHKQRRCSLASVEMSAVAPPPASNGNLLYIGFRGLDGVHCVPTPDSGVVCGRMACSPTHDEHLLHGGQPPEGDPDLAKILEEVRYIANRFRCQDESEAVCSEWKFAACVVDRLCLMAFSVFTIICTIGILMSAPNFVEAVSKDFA
# measurement protocol: Automated patch-clamp electrophysiology functional assay (Assay A)
# Assay type: cell-based
# setup conditions: electrophysiology EC50 values; IonFlux HT whole-cell population patch, HEK cells expressing human α7/RIC-3, 40 μM acetylcholine
pEC50 values, listed per item
Scale note: pEC50 = -log10(concentration in M).

Some entries whose results are on file:
compound	experimental value
O=C(NCc1cccc(I)c1)C1C2Oc3ccc(F)cc3C21 (stereo not drawn) [Example C21]	5.68
O=C(N[C@H]1CCOc2cc(F)c(F)cc21)C1C2COc3ccccc3C21 (stereo partly drawn) [Example A19]	5.80
Cc1ccccc1CNC(=O)C1C2Oc3ccc(F)cc3C21 (stereo not drawn) [Example C31]	5.74

Shift focus to the following entry.
Note to self: pEC50 of CC(NC(=O)C1C2Oc3ccc(F)cc3C21)c1ccno1 (stereo not drawn) [Example C43] with UniProt P36544 was 5.72
